- target.or.test.system: recombinant 2-oxoglutarate/malate translocator (transformed SP-DC3 cells) (Spinacia oleracea, UniProt Q41364)
- Construct: made in house; host or cells: Schizosaccharomyces pombe (SP-DC3 cells, plasmid pEVP11-211)
- Sequence (Q41364 94-569): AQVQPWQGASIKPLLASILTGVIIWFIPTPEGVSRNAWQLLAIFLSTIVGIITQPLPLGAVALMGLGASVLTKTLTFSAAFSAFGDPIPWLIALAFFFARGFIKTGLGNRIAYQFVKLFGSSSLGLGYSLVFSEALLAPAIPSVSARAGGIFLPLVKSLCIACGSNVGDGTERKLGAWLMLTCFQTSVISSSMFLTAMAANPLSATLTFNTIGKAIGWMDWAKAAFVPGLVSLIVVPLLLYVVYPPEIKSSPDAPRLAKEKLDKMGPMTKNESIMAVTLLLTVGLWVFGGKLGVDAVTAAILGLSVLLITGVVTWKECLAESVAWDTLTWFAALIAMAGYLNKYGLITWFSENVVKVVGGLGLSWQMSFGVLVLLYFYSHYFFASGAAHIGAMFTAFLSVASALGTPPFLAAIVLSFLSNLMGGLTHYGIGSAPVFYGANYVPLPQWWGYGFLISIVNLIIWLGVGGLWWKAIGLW
- protocol: Reconstituted malate transport activity (inhibitor stop method), recombinant protein from transformed SP-DC3 yeast cells in liposomes
- Type: biochemical, spinach (expressed in Schizosaccharomyces pombe)
- applied.conditions: recombinant protein (transformed SP-DC3 cells); liposomes preloaded with the indicated dicarboxylate; standard deviation in brackets
Here the recorded transport activity, percentage of activity measured with malate-preloaded liposomes is given for each entry.

Below: 2 compounds and their reported transport activity, percentage of activity measured with malate-preloaded liposomes.
compound	data.value
O=C(O)CCCC(=O)O [Glutarate]	63 (±14) %
N[C@@H](CC(=O)O)C(=O)O [Aspartate]	13 (±4) %

Continue with the next compound.
Request: Consider the compound O=C(O)CC(O)C(=O)O (stereo not drawn) [Malate] and give its measured transport activity, percentage of activity measured with malate-preloaded liposomes.
Result: 100%
